Reference for the values: paper PMC7916057

Molecular target: nucleolin RBD1,2 (NCL RBD 1,2) (UniProt P19338 307-466)
Assay: fluorescence titration; no ligand; PAGE: 10 mM phosphate, 140 mM KCl, 20 uM DNA, 1:1(:1) ratio, 30 min; fluorescence titration buffer, pH and temperature not given in the material
Settings: protein: recombinant; unlabelled in PAGE; stem-loop duplex plus G4; monomer major, dimer band also seen
observed.property: pKd
Answers are plain numbers, as −log10 of the molar value.

Endpoint output: pKd of GGTTGGGGTGGTGGTGGTTGTGGTGGTGGTGGCCAACC (structured_DNA) [AS1411-N6] . Value?
6.00
